EXPERIMENTAL_SYSTEM: UniProt:P35968
Sequence (P35968 20-1356): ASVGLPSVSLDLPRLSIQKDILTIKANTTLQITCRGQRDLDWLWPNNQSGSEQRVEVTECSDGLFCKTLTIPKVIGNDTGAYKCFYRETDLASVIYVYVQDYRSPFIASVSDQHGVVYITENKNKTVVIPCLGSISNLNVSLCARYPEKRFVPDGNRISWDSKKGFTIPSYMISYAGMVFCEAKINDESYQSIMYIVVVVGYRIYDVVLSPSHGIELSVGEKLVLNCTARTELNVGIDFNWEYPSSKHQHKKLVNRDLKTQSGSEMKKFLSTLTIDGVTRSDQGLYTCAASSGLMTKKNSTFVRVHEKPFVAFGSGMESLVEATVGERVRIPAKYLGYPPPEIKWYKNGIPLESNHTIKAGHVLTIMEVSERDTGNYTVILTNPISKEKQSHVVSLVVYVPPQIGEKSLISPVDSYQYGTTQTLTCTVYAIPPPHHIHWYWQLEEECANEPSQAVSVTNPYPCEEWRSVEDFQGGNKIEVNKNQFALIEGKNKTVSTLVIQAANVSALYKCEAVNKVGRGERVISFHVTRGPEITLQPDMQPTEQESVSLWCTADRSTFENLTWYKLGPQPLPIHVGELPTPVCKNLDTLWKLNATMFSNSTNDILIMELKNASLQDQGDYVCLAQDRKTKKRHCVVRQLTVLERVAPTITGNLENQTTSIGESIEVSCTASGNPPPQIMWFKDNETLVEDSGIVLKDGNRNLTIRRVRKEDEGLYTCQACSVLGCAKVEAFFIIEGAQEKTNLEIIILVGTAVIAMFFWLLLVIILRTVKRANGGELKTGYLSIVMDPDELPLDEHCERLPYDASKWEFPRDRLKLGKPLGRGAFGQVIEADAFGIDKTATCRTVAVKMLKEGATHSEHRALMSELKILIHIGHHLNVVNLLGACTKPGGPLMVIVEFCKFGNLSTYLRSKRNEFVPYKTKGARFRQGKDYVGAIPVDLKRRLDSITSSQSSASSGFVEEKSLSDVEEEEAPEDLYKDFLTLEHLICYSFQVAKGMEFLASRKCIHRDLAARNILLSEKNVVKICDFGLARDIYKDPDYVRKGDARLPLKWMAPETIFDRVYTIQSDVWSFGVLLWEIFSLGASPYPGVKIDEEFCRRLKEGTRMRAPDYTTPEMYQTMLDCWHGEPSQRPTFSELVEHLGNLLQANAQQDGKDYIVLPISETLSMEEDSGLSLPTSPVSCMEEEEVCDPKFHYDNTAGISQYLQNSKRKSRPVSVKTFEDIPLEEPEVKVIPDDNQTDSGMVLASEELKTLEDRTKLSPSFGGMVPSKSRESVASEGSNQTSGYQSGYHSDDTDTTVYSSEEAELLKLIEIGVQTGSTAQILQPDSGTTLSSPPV
ASSAY_NOTES: Kinase inhibitory activity, isotopic labeling (γ-33P-ATP)
Assay type: biochemical
This listing pairs compounds with measured IC50.

# INPUT_SMILES, IC50
rows = [
    ("CC(C)n1c(Nc2ccc(F)c(Cl)c2)nc2cnc(Nc3ccc(C(=O)NN4CCN(C)CC4)cc3F)nc21", "> 1000 nM"),
]

Now examine the next entry.
stdin: Entry under review: COc1cc(C(=O)NN2CCN(C)CC2)ccc1Nc1ncc2nc(Nc3ccccc3)n(C(C)C)c2n1 . Reported IC50?
stdout: > 1000 nM

---

EXPERIMENTAL_SYSTEM: EGFR L858R/T790M double mutant type (Homo sapiens (Human), UniProt P00533, L858R/T790M)
Sequence (P00533 25-1210 T790M/L858R): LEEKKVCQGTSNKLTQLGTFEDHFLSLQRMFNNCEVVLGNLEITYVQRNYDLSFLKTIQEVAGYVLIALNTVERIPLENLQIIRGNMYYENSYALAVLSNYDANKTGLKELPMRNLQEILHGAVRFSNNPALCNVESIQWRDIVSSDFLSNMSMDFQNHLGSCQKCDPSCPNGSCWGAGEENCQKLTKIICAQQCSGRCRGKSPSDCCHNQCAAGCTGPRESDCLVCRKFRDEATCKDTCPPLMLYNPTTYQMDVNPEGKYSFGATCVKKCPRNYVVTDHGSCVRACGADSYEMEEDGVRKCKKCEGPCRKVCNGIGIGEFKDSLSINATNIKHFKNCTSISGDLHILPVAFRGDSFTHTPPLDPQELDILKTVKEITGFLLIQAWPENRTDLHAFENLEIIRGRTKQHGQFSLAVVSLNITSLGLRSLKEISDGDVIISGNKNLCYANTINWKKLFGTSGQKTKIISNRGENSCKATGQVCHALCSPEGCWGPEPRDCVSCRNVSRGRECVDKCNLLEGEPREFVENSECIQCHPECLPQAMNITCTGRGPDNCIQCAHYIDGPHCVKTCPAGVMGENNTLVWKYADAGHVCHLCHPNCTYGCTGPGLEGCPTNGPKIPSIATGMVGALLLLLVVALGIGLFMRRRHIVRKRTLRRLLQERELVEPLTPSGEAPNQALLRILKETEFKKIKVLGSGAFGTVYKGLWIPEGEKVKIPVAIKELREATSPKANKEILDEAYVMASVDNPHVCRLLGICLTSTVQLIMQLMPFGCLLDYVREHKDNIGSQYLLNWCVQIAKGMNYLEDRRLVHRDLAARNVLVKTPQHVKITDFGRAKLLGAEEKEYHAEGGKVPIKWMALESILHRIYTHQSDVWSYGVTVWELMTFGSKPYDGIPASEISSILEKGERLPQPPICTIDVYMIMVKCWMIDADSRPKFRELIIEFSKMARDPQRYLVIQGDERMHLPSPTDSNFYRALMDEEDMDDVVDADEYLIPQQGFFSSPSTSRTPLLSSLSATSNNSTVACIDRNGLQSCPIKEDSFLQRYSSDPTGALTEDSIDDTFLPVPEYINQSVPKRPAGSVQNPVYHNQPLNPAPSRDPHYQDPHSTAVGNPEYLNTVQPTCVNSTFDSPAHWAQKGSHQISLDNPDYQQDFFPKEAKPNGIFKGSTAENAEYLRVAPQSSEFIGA
ASSAY_NOTES: Kinase inhibitory activity, isotopic labeling (γ-33P-ATP)
Format: biochemical
CONDITION_SUMMARY: ATP 45 μM (Km)
ASSAY_METRIC: IC50 (µM)

# INPUT_SMILES, VALUE_UNIT, IC50
data = [
    ("CN1CCN(c2ccc(Nc3ncc4nc(Nc5ccccc5)n(C)c4n3)cc2)CC1", "µM", 0.522),
    ("CC(C)n1c(Nc2cccc(C(F)(F)F)c2)nc2cnc(Nc3ccc(N4CCN(C)CC4)cc3)nc21", "µM", 0.012),
    ("CN1CCN(c2ccc(Nc3ncc4nc(Nc5ccccc5)[nH]c4n3)cc2)CC1", "µM", 0.458),
    ("COc1ccc(Nc2nc3cnc(Nc4ccc(N5CCN(C)CC5)cc4)nc3n2C(C)C)cc1", "µM", 0.057),
    ("CC(C)n1c(Nc2ccccc2)nc2cnc(Nc3ccc(C(=O)NN4CCN(C)CC4)cc3)nc21", "µM", 0.09),
]

[P] CC(C)n1c(Nc2ccc(C(F)(F)F)cc2)nc2cnc(Nc3ccc(N4CCN(C)CC4)cc3)nc21
[Q] C#Cc1cccc(Nc2nc3cnc(Nc4ccc(N5CCN(C)CC5)cc4)nc3n2C(C)C)c1
[R] CC(C)n1c(Nc2cccc(Br)c2)nc2cnc(Nc3ccc(N4CCN(C)CC4)cc3)nc21
stdin: # rank_down: sort by IC50, max first Reply: labels, ordered per the request.
stdout: P, R, Q
(P: 0.054 µM, R: 0.005 µM, Q: 0.003 µM)

---

EXPERIMENTAL_SYSTEM: c-KIT (Homo sapiens (Human), UniProt P10721)
Sequence (P10721 26-976): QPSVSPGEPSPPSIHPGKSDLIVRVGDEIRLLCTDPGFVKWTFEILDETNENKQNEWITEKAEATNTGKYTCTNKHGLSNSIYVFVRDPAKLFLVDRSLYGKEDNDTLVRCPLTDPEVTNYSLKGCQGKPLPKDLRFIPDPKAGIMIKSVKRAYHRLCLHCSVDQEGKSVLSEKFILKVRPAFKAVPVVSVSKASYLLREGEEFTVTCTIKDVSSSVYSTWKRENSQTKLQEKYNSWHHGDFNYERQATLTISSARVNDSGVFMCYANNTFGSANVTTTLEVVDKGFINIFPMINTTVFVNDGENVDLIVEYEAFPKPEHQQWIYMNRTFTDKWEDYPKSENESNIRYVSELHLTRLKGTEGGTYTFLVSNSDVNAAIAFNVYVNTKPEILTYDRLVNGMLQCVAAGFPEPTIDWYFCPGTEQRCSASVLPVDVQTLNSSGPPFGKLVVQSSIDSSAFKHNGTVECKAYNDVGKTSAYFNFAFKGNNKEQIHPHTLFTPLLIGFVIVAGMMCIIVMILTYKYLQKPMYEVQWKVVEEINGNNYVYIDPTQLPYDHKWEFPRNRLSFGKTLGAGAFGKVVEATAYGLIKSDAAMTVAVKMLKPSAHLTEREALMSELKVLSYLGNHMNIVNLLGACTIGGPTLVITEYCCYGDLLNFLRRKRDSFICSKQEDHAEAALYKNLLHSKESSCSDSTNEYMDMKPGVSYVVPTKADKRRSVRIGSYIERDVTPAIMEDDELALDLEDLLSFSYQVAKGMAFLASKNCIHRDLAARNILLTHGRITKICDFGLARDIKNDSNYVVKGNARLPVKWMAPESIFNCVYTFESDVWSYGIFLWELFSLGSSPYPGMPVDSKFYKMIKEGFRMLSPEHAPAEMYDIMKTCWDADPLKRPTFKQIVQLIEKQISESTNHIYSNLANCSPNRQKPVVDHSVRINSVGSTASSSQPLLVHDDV
ASSAY_NOTES: Kinase inhibitory activity, isotopic labeling (γ-33P-ATP)
Type: biochemical
CONDITION_SUMMARY: compound at 10 μM
This listing pairs compounds with measured The kinase activity inhibitory rate (%) by the tested compounds at 10 μM c-KIT.
Report the value in % with no unit label.

# COMPOUND, VALUE_UNIT, OBSERVED_MEASUREMENT
data = [
    ("CC(C)n1c(NC2CCCCC2)nc2cnc(Nc3ccc(N4CCN(C)CC4)cc3)nc21 [Compounds 8-30]", "%", 0),
    ("COc1ccc(Nc2nc3cnc(Nc4ccc(N5CCN(C)CC5)cc4)nc3n2C(C)C)cc1 [Compounds 8-18]", "%", 76),
    ("CC(C)n1c(Nc2ccc(C(=O)Nc3cccc(F)c3)cc2)nc2cnc(Nc3ccc(N4CCN(C)CC4)cc3)nc21 [Compounds 8-22]", "%", 10),
]

stdin: Entry under review: CC(C)n1c(Nc2ccccc2)nc2cnc(Nc3ccc(N4CCN(C)CC4)cc3)nc21 [Compounds 8-10] . Reported The kinase activity inhibitory rate (%) by the tested compounds at 10 μM c-KIT?
stdout: 3
